Taken from the RNAGym collection of RNA variant scans (doi:10.7554/elife.90254).

Each item that follows carries a reported self-cleavage.
B1: LINE1-full (parent)
chain: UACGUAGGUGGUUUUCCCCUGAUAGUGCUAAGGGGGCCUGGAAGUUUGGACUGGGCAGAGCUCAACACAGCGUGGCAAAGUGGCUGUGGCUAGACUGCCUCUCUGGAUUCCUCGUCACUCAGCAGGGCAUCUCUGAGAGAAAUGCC

- Variants of: B1
- assay_method_text: self-cleavage, relative activity (ratio to wild type); higher = more cleavage; in vitro, sequencing; the parent is a self-cleaving ribozyme
I'd appreciate a reply containing only the number, no unit.

Previously resolved entries follow.
> print(dat)
   mutant.label  experimental.value
1          G11C                1.42
2     G4A U115C                 0.9
3    G54A U104A                0.18
4    A42U U108C                1.33
5    A79U U143A                1.29
6     G34C A77G                1.64
7     A43G U87A                0.08
8   U102G A129G                0.88

# input for lookup
Field request: self-cleavage | item: A30U C61G 0.08
